- Test system: human MDR1 P-gp
- assay.explanation: Efflux in MDCK cells transfected with the human MDR1 gene (MDCK-PGP permeability)
- Type: in vitro ADME, canine
- conditions.used: dog, PEBA/PEAB, pH 7.4, 37° C.
Entries and their efflux ratio values follow.
Write no unit; give the number alone.

Q: Need efflux ratio of `CCn1cc(-c2ccc(OCc3c(C)nnn3-c3ccc(C(F)F)cc3)nn2)cn1` , thanks.
Result: 2.7

Q: Now give it for `Cc1nnn(-c2ccc(C(F)F)cc2)c1COc1ccc(-n2cc(C(F)(F)F)cn2)nn1` too.
Result: 0.3

Q: Would you mind doing `Cc1nnn(-c2ccc(C(F)F)cc2)c1COc1ccc(-c2ccn[nH]2)nn1` as well?
Result: 1.7

Q: What about this compound? `Cc1nnn(-c2ccc(C(F)F)cc2)c1COc1ccc(-n2ccc(C(N)=O)n2)nn1`
Result: 1.2

Q: Also need `Cc1cc(-c2ccc(OCc3c(C)nnn3-c3ccc(C(F)F)cc3)nn2)cnn1` , thanks.
Result: 3.7

Q: And `CNC(=O)c1cn(-c2ccc(OCc3c(C)nnn3-c3ccc(C(F)F)cc3)nn2)cn1` ?
Result: 3.8

Q: Cool, now `Cc1nnn(-c2ccc(C(F)F)cc2)c1COc1ccc(-n2ccc(C(F)(F)F)n2)nn1`
Result: 0.4

Q: Again, but for `COc1ncc(-c2ccc(OCc3c(C)nnn3-c3ccc(C(F)F)cc3)nn2)cn1`
Result: 0.6

Measured values drawn from patent US10941137B2 for this set.
